measured on: Human SST5 somatostatin receptor (SSTR5) (Homo sapiens)
Construct: expressed in transfected cells; host or cells: HEK-293 EBNA
Sequence (P35346 whole entry): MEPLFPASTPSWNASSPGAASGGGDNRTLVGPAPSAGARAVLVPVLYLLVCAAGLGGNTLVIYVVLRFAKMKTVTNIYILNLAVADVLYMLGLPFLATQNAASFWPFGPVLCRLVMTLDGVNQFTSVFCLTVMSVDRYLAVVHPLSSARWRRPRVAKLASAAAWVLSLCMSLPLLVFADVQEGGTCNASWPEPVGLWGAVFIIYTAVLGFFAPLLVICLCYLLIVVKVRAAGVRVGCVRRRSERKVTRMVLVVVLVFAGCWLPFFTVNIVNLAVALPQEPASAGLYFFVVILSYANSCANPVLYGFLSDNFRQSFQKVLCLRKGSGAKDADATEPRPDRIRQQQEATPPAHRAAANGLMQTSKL
test method notes: Filter plate assay for SST5 receptor, displacement of [125I]SST-14
Type: binding
recorded conditions: 0.5 uM
SSTR5 Inhib 0.5 uM % (inhibition of binding of SST-14 to SSTR5) vs 50%: at or above is rule met, below is rule not met.

These recorded examples may help you get a feel for the data.
CSC1O[C@H](COCc2ccc(Cl)cc2)[C@@H](O)[C@@H](OCc2ccc(-c3ccccc3)cc2)[C@H]1NC(=O)CNC(=N)N (some centres unmarked); rule not met
COC[C@H]1OC(OCCc2ccccc2)[C@H](NC(=O)CCCNC(=N)N)[C@@H](OCc2ccc(Cl)cc2)[C@@H]1O (some centres unmarked) [Compound 98]; rule met
COC[C@H]1OC(OCc2ccc3ccccc3c2)[C@H](NC(=O)CCCNC(=N)N)[C@H](OCc2ccc(Cl)cc2)[C@@H]1O (some centres unmarked); rule met
COC1C(O)C(COCc2ccc3ccccc3c2)OC(OCc2ccc(Cl)cc2)C1NC(=O)CNC(=N)N (centres unmarked); rule not met
COC[C@H]1OC(OCc2ccc3ccccc3c2)[C@H](NC(=O)CNC(=N)N)[C@@H](OCc2ccc3ccccc3c2)[C@@H]1O (some centres unmarked); rule not met
COC[C@H]1OC(OCc2ccc(-c3ccccc3)cc2)[C@H](NC(=O)CCCNC(=N)N)[C@@H](OCc2ccc(Cl)cc2)[C@@H]1O (some centres unmarked) [Compound 120]; rule not met
CO[C@H]1[C@H](O)[C@@H](COCc2ccc(Cl)cc2)OC(OCc2ccc3ccccc3c2)[C@@H]1NC(=O)CCCN (some centres unmarked); rule not met

# check: SSTR5 Inhib 0.5 uM % (inhibition of binding of SST-14 to SSTR5) of COC[C@H]1OC(OCc2ccc3ccccc3c2)[C@H](NC(=O)CCN)[C@H](OCc2ccccc2)[C@@H]1O (some centres unmarked) is greater than or equal to 50%
rule met

###

For SSTR-1 (Homo sapiens), measured Ki is reported for the entries below.

Known Ki results, listed for orientation:
COC[C@H]1O[C@H](OCc2ccc3ccccc3c2)[C@H](NC(=O)CCCN)[C@@H](OCc2ccc(Cl)cc2)[C@@H]1O; > 10 µM
CO[C@H]1[C@H](O)[C@@H](COCc2ccc3ccccc3c2)OC(OCc2ccc(Cl)cc2)[C@@H]1NC(=O)C1CCCN(C(=N)N)C1 (stereo partly drawn); > 10 µM

# ---- query compound ----
Item CS[C@@H]1O[C@H](COCc2ccc(Cl)cc2)[C@@H](O)[C@@H](OCc2ccc3ccccc3c2)[C@H]1NC(=O)CCN has what recorded Ki?
> 10 µM

###

measured on: Human SST5 somatostatin receptor (SSTR5) (Homo sapiens)
Construct: expressed in transfected cells; host or cells: HEK-293 EBNA
test method notes: Filter plate assay for SST5 receptor, displacement of [125I]SST-14
Assay type: binding
recorded conditions: 0.5 uM
recorded metric: SSTR5 Inhib 0.5 uM % (inhibition of binding of SST-14 to SSTR5) (%)
Field format: number, assumed %, no unit text.

COC[C@H]1OC(OCc2ccc(Cl)cc2)[C@H](NC(=O)CCCN)[C@@H](OCc2ccc(-c3ccccc3)cc2)[C@@H]1O (stereo partly drawn) [Compound 90]; 52
COC[C@H]1OC(OCCc2ccccc2)[C@H](NC(=O)CCCN)[C@@H](OCc2ccc3ccccc3c2)[C@@H]1O (stereo partly drawn) [Compound 44]; 78
CO[C@H]1[C@H](O)[C@@H](COCc2ccc(-c3ccccc3)cc2)OC(OCc2ccc(-c3ccccc3)cc2)[C@@H]1NC(=O)CCCN (stereo partly drawn) [Compound 179]; 29
COC[C@H]1OC(OCc2ccc(Cl)cc2)[C@H](NC(=O)CCNC(=N)N)[C@H](OCc2ccc3ccccc3c2)[C@@H]1O (stereo partly drawn) [Compound 50]; 74
COC[C@H]1OC(OCc2ccc3ccccc3c2)[C@H](NC(=O)CCNC(=N)N)[C@H](OCc2ccc(Cl)cc2)[C@@H]1O (stereo partly drawn) [Compound 35]; 60
COC[C@H]1OC(OCc2ccc3ccccc3c2)[C@H](NC(=O)CCNC(=N)N)[C@H](OCc2ccc3ccccc3c2)[C@@H]1O (stereo partly drawn) [Compound 57]; 64
COC[C@H]1OC(OCCc2ccccc2)[C@H](NC(=O)CCNC(=N)N)[C@@H](OCc2ccc(Cl)cc2)[C@@H]1O (stereo partly drawn) [Compound 166]; 36
COC[C@H]1OC(OCc2ccc(Cl)cc2)[C@H](NC(=O)CCCN)[C@H](OCc2ccc3ccccc3c2)[C@@H]1O (stereo partly drawn) [Compound 24]; 67
COC[C@H]1OC(OCc2ccc(Cl)cc2)[C@H](NC(=O)CCCN)[C@H](OCc2ccccc2)[C@@H]1O (stereo partly drawn) [Compound 117]; 46
COC[C@H]1OC(OCc2ccc3ccccc3c2)[C@H](NC(=O)CCCN)[C@@H](OCc2ccc(Cl)cc2)[C@@H]1O (stereo partly drawn) [Compound 47]; 68

# ---- query compound ----
Item CO[C@@H]1[C@H](O)[C@@H](COCc2ccc3ccccc3c2)OC(OCc2ccc(Cl)cc2)[C@@H]1NC(=O)C1CCCN(C(=N)N)C1 (stereo partly drawn) [Compound 69] has what recorded SSTR5 Inhib 0.5 uM % (inhibition of binding of SST-14 to SSTR5)?
67
